tested_target: E3 ubiquitin-protein ligase Mdm2 (Homo sapiens)
Sequence (Q00987 whole entry): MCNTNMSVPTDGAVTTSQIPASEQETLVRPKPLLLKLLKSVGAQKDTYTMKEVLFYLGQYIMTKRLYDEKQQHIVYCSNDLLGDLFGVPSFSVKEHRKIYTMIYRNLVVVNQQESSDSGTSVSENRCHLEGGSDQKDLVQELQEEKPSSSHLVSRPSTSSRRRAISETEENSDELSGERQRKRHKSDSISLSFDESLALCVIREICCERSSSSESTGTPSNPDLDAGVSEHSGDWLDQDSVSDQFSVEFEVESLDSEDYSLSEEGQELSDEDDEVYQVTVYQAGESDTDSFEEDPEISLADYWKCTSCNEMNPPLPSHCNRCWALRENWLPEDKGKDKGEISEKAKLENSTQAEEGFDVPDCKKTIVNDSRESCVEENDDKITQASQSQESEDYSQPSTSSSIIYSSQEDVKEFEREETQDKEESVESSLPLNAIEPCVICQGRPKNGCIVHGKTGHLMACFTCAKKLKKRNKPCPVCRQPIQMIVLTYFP
assay_info: MDM2-luc reporter signal enhancers, multi-concentration potency testing, MDM2 ubiquitin-protein ligase inhibitor program, whole-cell format, luminescence detection, 384-well microplate (AID 1394);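 further: MDM2 E3 inhibitors raise luminescence so EC50 is for signal enhancement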
Assay type: functional
Calls of active or inactive are those of the source.

# smiles_structure, tested_target, EC50
records = [
    ("Cc1ccc(C(=O)NN2C(=O)/C(=C/c3cccn3C)SC2=S)cc1", "E3 ubiquitin-protein ligase Mdm2 (Homo sapiens)", "90 nM (not active)"),
    ("CCN(CC)c1ccc(/C=C2/C(=O)c3ccc(C(=O)O)cc3C2=O)cc1", "E3 ubiquitin-protein ligase Mdm2 (Homo sapiens)", "70 nM (active)"),
    ("Cc1cc(C)nc(S/C=C/C(=O)c2ccccc2F)n1", "E3 ubiquitin-protein ligase Mdm2 (Homo sapiens)", "1000 nM (active)"),
    ("CC(C)=C1SC(N2CCN(c3cccc(C(F)(F)F)c3)CC2)=NC1=O", "E3 ubiquitin-protein ligase Mdm2 (Homo sapiens)", "18700 nM (not active)"),
]

====

tested_target: Carboxy-terminal domain RNA polymerase II polypeptide A small phosphatase 1 (Homo sapiens, UniProt Q9GZU7)
Sequence (Q9GZU7 whole entry, the tested form may be a part): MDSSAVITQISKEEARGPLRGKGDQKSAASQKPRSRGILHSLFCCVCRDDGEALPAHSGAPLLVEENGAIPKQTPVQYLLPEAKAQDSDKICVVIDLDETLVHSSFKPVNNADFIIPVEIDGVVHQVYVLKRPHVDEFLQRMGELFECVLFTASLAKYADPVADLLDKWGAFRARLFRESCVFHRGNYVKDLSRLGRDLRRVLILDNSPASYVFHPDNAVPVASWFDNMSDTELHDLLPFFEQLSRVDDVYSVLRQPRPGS
assay_info: CTDSP1 inhibitors, concentration-response, biochemical, absorbance readout, ultra-high-throughput screen actives (AID 540297)
Type: functional
The source made the active and inactive calls.
quantity_name: IC50

# molecule, result
data = [
    ("CC(=O)OCC1=C(C(=O)OC(C)(C)C)N2C(=O)[C@@H](NC(=O)Cc3ccccc3)[C@H]2SC1", "8.61 µM (active)"),
    ("CCOC(=O)C1(C)Oc2ccccc2C(C(=O)OC)=C1C(=O)OC (stereo not given)", "23.6 µM (active)"),
    ("N#C/C(=C/c1ccc(OCc2ccc(C(=O)O)cc2)cc1)C(=O)Nc1ccccc1", "5.32 µM (active)"),
    ("O=C(CN1C(=O)S/C(=C\\c2ccc(O)c([N+](=O)[O-])c2)C1=O)Nc1ccc(N2CCOCC2)cc1", "2.65 µM (active)"),
    ("CCCc1cc(=O)oc2cc(OCC(=O)NC(Cc3c[nH]c4ccc(O)cc34)C(=O)O)c(Cl)cc12 (stereo not given)", "32.7 µM (active)"),
    ("Cc1ccn2c(=O)nc(SCC(=O)NCc3ccc4c(c3)OCO4)nc2c1", "10.5 µM (active)"),
    ("Cc1cccc(C(=O)NC2CCN(C(=O)NCc3ccccc3)CC2)c1", "12.1 µM (active)"),
    ("Cc1ccc(NC(=O)c2cc(-c3ccco3)nc3ccccc23)cc1S(=O)(=O)N1CCOCC1", "5.51 µM (active)"),
    ("CC(C)CCOc1ccc(C(=O)C[N+]2(C)CCOCC2)cc1", "9.75 µM (active)"),
    ("O=C(COC(=O)c1ccc(Br)o1)NCc1ccco1", "9.79 µM (active)"),
]

====

Entries and their measured IC50 follow.
tested_target: Large T antigen (Simian virus 40);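 further: Confirmatory-stage PubChem screen for compounds that inhibit SV40 T antigen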
Sequence (P03070 whole entry): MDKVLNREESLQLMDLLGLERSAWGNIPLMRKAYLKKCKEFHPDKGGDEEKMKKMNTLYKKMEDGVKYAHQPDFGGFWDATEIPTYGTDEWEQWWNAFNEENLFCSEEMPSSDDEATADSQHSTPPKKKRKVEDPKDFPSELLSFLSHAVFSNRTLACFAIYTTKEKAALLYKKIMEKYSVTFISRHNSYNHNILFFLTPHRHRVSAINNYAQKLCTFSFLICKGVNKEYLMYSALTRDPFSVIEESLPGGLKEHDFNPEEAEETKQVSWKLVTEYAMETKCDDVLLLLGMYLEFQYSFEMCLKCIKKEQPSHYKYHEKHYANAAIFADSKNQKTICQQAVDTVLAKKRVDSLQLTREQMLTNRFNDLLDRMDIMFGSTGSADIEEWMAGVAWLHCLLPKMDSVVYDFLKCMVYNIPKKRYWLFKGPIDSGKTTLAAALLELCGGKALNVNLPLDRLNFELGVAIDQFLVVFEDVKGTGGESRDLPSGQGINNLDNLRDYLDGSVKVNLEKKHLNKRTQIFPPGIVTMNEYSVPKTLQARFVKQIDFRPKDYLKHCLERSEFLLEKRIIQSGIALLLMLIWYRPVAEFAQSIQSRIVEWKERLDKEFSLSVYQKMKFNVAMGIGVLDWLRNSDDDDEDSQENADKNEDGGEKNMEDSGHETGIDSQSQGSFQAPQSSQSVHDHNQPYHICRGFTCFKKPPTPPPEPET
Type: functional, Betapolyomavirus macacae
The source made the active and inactive calls.
quantity_name: IC50

# compound, result
rows = [
    ("CN(C)c1ccc(Nc2nc(-c3cccnc3)cs2)cc1", "8.54 µM (active)"),
    ("COc1cccc(-n2c(SCc3cc(=O)oc4cc(O)c(O)cc34)nc3ccccc3c2=O)c1", "> 100 µM (active)"),
    ("ClCC1=Nc2cccc3cccc(c23)N1", "10 µM (active)"),
    ("O=C(NC(=S)Nc1ccc(O)cc1)c1cncc(Br)c1", "6.41 µM (active)"),
    ("COc1cc(C(c2c(C)n[nH]c2O)c2c(C)n[nH]c2O)ccc1OC(=O)c1cccc([N+](=O)[O-])c1", "> 100 µM (active)"),
    ("COc1ccc(CN2C(=O)NC(=O)/C(=C/c3ccoc3)C2=O)cc1", "36.9 µM (active)"),
    ("COc1ccc(CC(=O)n2[nH]c(=O)ccc2=O)cc1OC", "> 100 µM (active)"),
    ("COc1cc(/C=C2\\C(=O)ON=C2c2ccc(Cl)cc2)ccc1O", "14.6 µM (active)"),
    ("N#C/C(=C\\c1ccc(O)c(O)c1)C(=O)Nc1ccccc1", "13.1 µM (active)"),
    ("O=c1c(OC2OC(CO)C(O)C(O)C2O)c(-c2ccc(O)c(O)c2)oc2cc(O)cc(O)c12 (stereo unspecified)", "2.06 µM (active)"),
    ("COc1cc(/C=N/n2cnnc2)ccc1OC(=O)c1ccncc1", "75 µM (active)"),
]
